Tested on: ACHN renal
Assay: NCI tumour cell line growth inhibition, 48 h
Where a SMILES comes first, the peptide text is derived from it. [ ]: non-standard residue; d: D form. The star is where a group is joined. ξ: configuration not given here. 4Abz = Nc1ccc(C(=O)O)cc1; ξL = CC(C)CC(N)C(=O)O; NHOH = ON*
endpoint: GI50

Reference set (8 entries):
compound	reported result
CC([C@H]1CCC2C3CCC4C(=O)C(NC=O)=CC[C@]4(C)C3CC[C@@]21C)N(C)C (some centres undefined)	4.86 µM
Nc1ncnc2c1ncn2C1OC(CO)C(O)C1O (centres undefined)	30.4 µM
N#CC1=C(N)NC(=S)NC1c1ccc(-c2ccc(-c3nc4ccccc4s3)cc2)o1 (centres undefined)	28.1 µM
Oc1ccc(Br)cc1CN1CCN(Cc2ccc(Cl)cc2)CC1	31.7 µM
COc1ccc(CNCCN2C(=O)c3ccc4c5c(ccc(c35)C2=O)C(=O)N(CCNCc2ccc(OC)cc2)C4=O)cc1	0.312 µM
O=C1/C(=C/c2ccc(F)cc2)CN(Cc2cn(CCNc3ccnc4cc(Cl)ccc34)nn2)C/C1=C\c1ccc(F)cc1	1.68 µM
Cc1c(Br)cccc1NC(=O)c1sc2nc3c(cc2c1N)CN(Cc1ccccc1)CC3	0.444 µM
CN1CCN(c2nc(NCCNc3ccnc4cc(Cl)ccc34)c3ccccc3n2)CC1	2.85 µM

Could you share which GI50 value was measured for CC(C)CC(NC(=O)[C@@H]1CCCN1C(=O)CNC(=O)c1ccc(N)cc1)C(=O)N[C@H](C)C(=O)NO (some centres undefined) (H-[4Abz]GP[ξL][dA]-{NHOH}) ? > 100 µM

Could you share which GI50 value was measured for `COc1cc(OC)cc(-c2n[nH]nc2-c2ccc3c(c2)OCO3)c1` ? 0.705 µM

Could you share which GI50 value was measured for `COC(=O)c1ccc2c(c1)[n+](=O)c(C(C)=O)c(C(F)(F)F)n2[O-]` ? 1.76 µM

Could you share which GI50 value was measured for CC(C)=CCNc1ncnc2c1ncn2C1OC(COP(=O)(O)O)C(O)C1O (centres undefined) ? 3.08 µM

Could you share which GI50 value was measured for COc1cc(C2C3=C(COC3=O)N(CCO)c3cc4c(cc32)OCCO4)cc(OC)c1O (centres undefined) ? 5.94 µM

Could you share which GI50 value was measured for `Cc1cc(C)c2nc(Nc3nc(C)c(C)c(=O)[nH]3)nc(C)c2c1` ? 3.06 µM

###

Tested on: OVCAR-3 ovarian
Assay: NCI tumour cell line growth inhibition, 48 h
TGI by entry:

compound	TGI
N#CC1(Cc2ccccc2Cl)c2ccccc2C=CN1C(=O)c1ccccc1 (centres undefined)	> 100 µM
COC(=O)[C@@]12CC3CN(Cc4c1[nH]c1ccccc41)C2CC3=O	> 100 µM
O=C1/C=C(/c2ccc(O)cc2)[C@H](O)Cc2ccc(OC3OC(CO)C(O)C(O)C3O)cc2O1 (some centres undefined) (tested in a mixture with another compound)	> 100 µM
CC(=O)c1c[nH]c2ccc(-c3ccnc(Nc4ccc(NC(=O)c5cccc(F)c5)c(CN5CCOCC5)c4)n3)cc12	0.932 µM

Could you share which TGI value was measured for `CO/C=C(/C(=O)OC)c1ccccc1[C@H]1C[C@@H]1c1ccc(OC)cc1` ? 49 µM

Could you share which TGI value was measured for `CC(=N\O)/C(C)=N/O.CC(=N\O)/C(C)=N/O.[Pd]` ? > 10 µM

Could you share which TGI value was measured for `NC(=O)c1ccc(N)nc1` ? > 400 µM

Could you share which TGI value was measured for `CC(=O)Nc1ccc(S(=O)(=O)/N=c2/sc(S(N)(=O)=O)nn2C)cc1` ? > 100 µM

Could you share which TGI value was measured for COc1cc2c3c(c1OC)C1(C=CC(=O)C=C1)CC3N(C(=O)OC(C)(C)C(Cl)(Cl)Cl)CC2 (centres undefined) ? 20.7 µM
